Values were extracted from the supplement of paper PMC10065799.

Target: Grb2 SH2 (UniProt P62993)
Sequence (P62993 whole entry, looked up): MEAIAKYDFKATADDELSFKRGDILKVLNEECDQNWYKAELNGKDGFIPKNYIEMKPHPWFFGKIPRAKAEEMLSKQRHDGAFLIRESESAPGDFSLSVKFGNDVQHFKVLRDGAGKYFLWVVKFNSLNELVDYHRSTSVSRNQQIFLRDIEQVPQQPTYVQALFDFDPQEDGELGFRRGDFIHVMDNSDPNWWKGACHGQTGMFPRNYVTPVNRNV
Assay: SH2 binding enrichment of the phosphorylated peptide, bacterial display (enrichment ratio); higher = better substrate or ligand; peptides without Tyr show the background

# Biosequence, SH2 binding enrichment
data = [
    ("APNEFYDGDHD [HDAC3_Y414]", 0.727),
    ("TLKVGYKEKQR [EPHA3_Y659_T660K]", 0.919),
    ("QMVGMYASFYM [AVPR2_Y124_S127F]", 0.784),
    ("AIMSFYATLID [RYR1_Y2426_A2428T]", 0.869),
    ("GYGGGYGGVLT [KRT19_Y65_A60G]", 0.742),
    ("GPIEVYLCPEE [E2F3_Y349]", 0.817),
    ("SVTCTYSAALN [TP53_Y126_P128A]", 0.686),
    ("VDLSKCITTIA [FAS_Y232_Y232C]", 0.742),
    ("LVPPRYARSEI [PKP2_Y194]", 0.771),
    ("MSLRSYGSREG [APC_Y96]", 0.763),
    ("WRVISYHVVVW [ATP13A2_Y50_G49S]", 1.08),
    ("REVPVYTDSEP [FAM120B_Y368]", 0.986),
    ("IFSGIYFKPES [L2HGDH_Y102_H98Y_YF]", 1.05),
    ("DGMADYSDPSY [CDC5L_Y459]", 0.833),
]

====

Biological target: Grb2 SH2 (UniProt P62993)
Assay: SH2 binding enrichment of the phosphorylated peptide, bacterial display (enrichment ratio); higher = better substrate or ligand; peptides without Tyr show the background

# Biosequence, SH2 binding enrichment
measured = [
    ("LARHMYDKEFF [MET_Y1230_D1228H_YF]", 0.7),
    ("TLNHQYDYTFD [CSNK1A1_Y292]", 0.779),
    ("RHTRSYDYTEG [FGF7_Y56_M59T]", 0.864),
    ("DRIVNYSRASV [ATP7A_Y1459_I1464V]", 0.766),
    ("RNGNRYFKGIV [DCX_Y64_D62N]", 0.602),
    ("KELAPYDENRF [RPS19_Y48_W52R]", 0.896),
    ("KPLMPSMRYSR [SMARCE1_Y73_Y73S]", 0.717),
]

====

Molecular target: Fyn (UniProt P06241)
Sequence (P06241 whole entry, looked up): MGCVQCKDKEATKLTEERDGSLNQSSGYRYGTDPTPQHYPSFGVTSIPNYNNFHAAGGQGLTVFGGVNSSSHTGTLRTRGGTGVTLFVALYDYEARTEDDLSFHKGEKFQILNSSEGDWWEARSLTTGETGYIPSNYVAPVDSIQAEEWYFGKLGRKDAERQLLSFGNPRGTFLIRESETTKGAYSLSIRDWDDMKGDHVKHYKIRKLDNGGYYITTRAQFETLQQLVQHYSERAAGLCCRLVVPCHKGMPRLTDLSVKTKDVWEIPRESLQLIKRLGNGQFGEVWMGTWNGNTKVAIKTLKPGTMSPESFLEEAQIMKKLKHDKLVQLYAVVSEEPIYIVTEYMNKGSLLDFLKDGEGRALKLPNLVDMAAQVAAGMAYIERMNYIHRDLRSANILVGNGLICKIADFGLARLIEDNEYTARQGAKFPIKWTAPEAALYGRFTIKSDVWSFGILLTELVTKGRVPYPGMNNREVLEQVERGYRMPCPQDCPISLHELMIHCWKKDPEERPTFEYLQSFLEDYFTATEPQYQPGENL
Assay: phosphorylation enrichment, bacterial display (enrichment ratio); higher = better substrate or ligand; peptides without Tyr show the background
The entries below come with measured phosphorylation enrichment values attached.

# Biosequence, phosphorylation enrichment
measured = [
    ("LVKDPYVMFPQ [PLEKHG2_Y489_P484L]", 4.32),
    ("LSKDLYLISQM [LARP4_Y141]", 0.828),
    ("LSGVIYVILWK [PMP22_Y153_R157W]", 0.304),
    ("RLAQRYLIWEC [SCN5A_Y694]", 0.595),
    ("EAEPYYRSLRD [NPHS1_Y1139]", 0.479),
    ("VRFVDYVLFRS [FAM189B_Y361_S358F]", 0.542),
    ("QDEHGYISLCF [HSPB1_Y133_R136L]", 1.05),
    ("CTTIHYMYMCN [TP53_Y234_N235M]", 0.362),
    ("MEYLPYGSLRD [JAK2_Y934]", 4.56),
    ("LITTLYIGFLG [KCNQ1_Y267]", 2.11),
    ("RSRSPYSPVLR [CDK13_Y399]", 0.551),
    ("QAEELYFGKMG [YES1_Y159_W158L]", 3.61),
    ("VYYDLYGGEKF [PTPN11_Y66_D61V]", 5.88),
    ("VYAANYYKLLG [ROR2_Y645_D644N]", 1.28),
    ("ATDLAYYLVRK [ASL_Y375]", 0.85),
    ("SIKDKYVTALF [KCNH2_Y611_YF]", 0.465),
    ("LISVSYDDWDY [GRIN2A_Y281]", 0.773),
    ("ECKLRYSRKEG [PTPN11_Y263_L262R]", 0.52),
    ("CKPGFYNLKEK [LAMA1_Y490]", 0.359),
    ("FGDTPYIPFRD [CDC14C_Y132]", 0.55),
    ("PLQKTYNHNVL [SLC4A1_Y553_Y555H]", 0.531),
    ("AEFGLYGAMVR [VSX2_Y222_YF]", 5.3),
    ("YGAHNYHPLPV [OAT_Y55]", 0.599),
    ("SNSAAYSGSVA [PDLIM5_Y382_T381A]", 0.404),
    ("CERFSYFGMKA [SLC15A2_Y60_YF]", 0.529),
    ("LARHMYDKEFF [MET_Y1230_D1228H_YF]", 0.404),
    ("VGTKWYMAPEV [ACVRL1_Y375_R374W]", 0.364),
    ("TLRETYGEMAD [ALB_Y108]", 0.627),
    ("ADLLDYIKALN [HPRT1_Y81]", 0.445),
    ("HVSISYDIPLT [GAB1_Y307_P311L]", 1.31),
    ("VFLGAYDCFLP [SLC22A5_Y486_R488C_YF]", 5.7),
    ("KKRRSYGNSSD [SELENOK_Y52]", 0.448),
    ("QMVGMYASFYM [AVPR2_Y124_S127F]", 7.85),
    ("PHMQTYEVDLN [SDHB_Y61]", 0.906),
    ("RILDVYIFLGP [GAA_Y340_G335R]", 0.46),
    ("GPIEVYLCPEE [E2F3_Y349]", 0.525),
    ("PANMVYSTVEI [SLAMF7_Y304_T302M]", 10.6),
    ("RKVLVYDKLNV [ROR2_Y624_N620K]", 1.71),
    ("GDEVEYMLVSF [GCLC_Y53]", 0.841),
    ("VQSASYLNDCL [MCM3AP_Y864_A867D]", 0.448),
    ("EKLIQYCQSKS [AKR1B1_Y199_G204S]", 0.475),
    ("KPLMPSMRYSR [SMARCE1_Y73_Y73S]", 0.383),
    ("VDGSLYKTHPQ [HK1_Y417]", 0.44),
    ("SIVEDYRPPFY [ACVRL1_Y421_G416S]", 0.483),
    ("SLGKGYSVGGC [MC4R_Y35_D37V]", 0.432),
    ("QAPPVYLDVLG [NTRK1_Y791]", 1.01),
    ("QLCVSYPGGFT [PROS1_Y259_N258S_YF]", 0.663),
    ("FGTAQYCCRMG [LRRK2_Y2023_I2020T_YF]", 0.463),
    ("ESLRSYDVMDV [KCNQ2_Y562_P561S]", 0.556),
    ("YSSLGYPPPEG [ZSWIM4_Y87]", 2.36),
    ("GTCGGYCSVLG [RAB18_Y202_A198T]", 0.397),
    ("VSKGGYFSVNL [C3orf33_Y164]", 0.485),
    ("AALVQYYMEHH [PTPN11_Y80_E76A]", 0.529),
    ("PEVRRCVLPLN [RPE65_Y368_Y368C]", 0.366),
    ("RMGNLYDIDED [GRIN2A_Y1246]", 2.25),
    ("HCHEGYVLHGA [SVEP1_Y2921_I2922V]", 0.789),
    ("SDYYAYSPVQE [H6PD_Y449_R453Q]", 8.25),
]
